Where these numbers come from: patent US20180030151A1

I'd appreciate it if you could supply A405, TF/FVIIa/FX complex assay (FX 5 nM), Ab 100 nM values for the items below.
target: recombinant human TFPI (tissue factor pathway inhibitor) (human, UniProt P10646 29-304); test: cell-based or functional assay
Numbers only.

binder	reading
clone 1023 (antibody, V domains shown, scFv on yeast at selection; human IgG4/kappa IgG as purified) VH: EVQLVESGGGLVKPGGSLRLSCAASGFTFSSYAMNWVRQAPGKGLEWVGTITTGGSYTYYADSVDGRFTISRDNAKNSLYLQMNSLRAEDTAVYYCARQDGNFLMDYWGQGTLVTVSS VL: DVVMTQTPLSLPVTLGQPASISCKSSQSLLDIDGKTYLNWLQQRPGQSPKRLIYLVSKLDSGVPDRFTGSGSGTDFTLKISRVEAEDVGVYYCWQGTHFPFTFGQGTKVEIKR	0.81
clone 8 (antibody, V domains shown) VH: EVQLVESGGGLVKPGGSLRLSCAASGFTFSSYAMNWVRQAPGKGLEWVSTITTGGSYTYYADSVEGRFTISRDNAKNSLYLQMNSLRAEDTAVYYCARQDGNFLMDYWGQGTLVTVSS VL: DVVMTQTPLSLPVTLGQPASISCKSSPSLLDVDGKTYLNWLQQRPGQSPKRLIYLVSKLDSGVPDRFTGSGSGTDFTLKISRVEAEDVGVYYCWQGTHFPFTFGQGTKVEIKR	0.834
clone 3 (antibody, V domains shown) VH: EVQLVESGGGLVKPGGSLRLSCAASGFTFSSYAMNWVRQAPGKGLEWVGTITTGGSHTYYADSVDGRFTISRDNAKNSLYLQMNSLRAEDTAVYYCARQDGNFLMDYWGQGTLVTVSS VL: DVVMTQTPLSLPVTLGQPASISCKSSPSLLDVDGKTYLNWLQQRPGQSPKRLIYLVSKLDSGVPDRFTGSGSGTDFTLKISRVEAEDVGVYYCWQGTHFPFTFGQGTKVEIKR	0.842

Next binder, please.
Q. Entry under review: clone 2 (antibody, V domains shown) VH: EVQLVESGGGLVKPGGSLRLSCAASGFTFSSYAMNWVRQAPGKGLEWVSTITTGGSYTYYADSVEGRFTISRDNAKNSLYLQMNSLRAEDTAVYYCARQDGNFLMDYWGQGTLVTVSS VL: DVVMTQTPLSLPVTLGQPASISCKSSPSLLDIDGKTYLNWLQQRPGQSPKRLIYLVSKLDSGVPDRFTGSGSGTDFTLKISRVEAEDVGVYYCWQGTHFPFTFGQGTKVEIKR . Reported A405, TF/FVIIa/FX complex assay (FX 5 nM), Ab 100 nM?
A. 0.835
